// data source = ChEMBL document CHEMBL1141299

Please go through the items and note down their bioavailability.
assay_notes: Oral bioavailability in human
condition_description: in vivo, F
Give bare numbers, in %.

The following molecules have reported results that may help.
C[C@H](O)Cn1cnc2c1c(=O)n(C)c(=O)n2C [(S)-PROXYPHYLLINE]: 100
O=C(O)c1cc(-c2ccc(F)cc2F)ccc1O [DIFLUNISAL]: 100
C[C@@H]1C[C@H]2[C@@H]3C[C@H](F)C4=CC(=O)C=C[C@]4(C)[C@@]3(F)[C@@H](O)C[C@]2(C)[C@@]1(O)C(=O)SCF [FLUTICASONE]: 1
COc1cc2nc(N3CCN(C(=O)c4ccco4)CC3)nc(N)c2cc1OC [PRAZOSIN]: 68
CCC(=O)c1ccc2c(c1)N(C[C@@H](C)N(C)C)c1ccccc1S2 [(R)-PROPIOMAZINE]: 33
CC(C)(O)c1ccccc1CC[C@@H](SCC1(CC(=O)O)CC1)c1cccc(/C=C/c2ccc3ccc(Cl)cc3n2)c1 [MONTELUKAST]: 73

Provide bioavailability values for the following items, in order.
1. CN1CCN2c3ccccc3Cc3ccccc3[C@H]2C1
2. Nc1nc(N)c2nc(-c3ccccc3)c(N)nc2n1
3. O[C@@](CCN1CCCC1)(c1ccccc1)C1CCCCC1 [(R)-PROCYCLIDINE]

Result:
[20, 51, 75]

---

assay_notes: Oral bioavailability in human
condition_description: in vivo, F
Use 1 (yes) when the recorded bioavailability is no lower than 80%; use 0 (no) when it is lower.

Illustrative cases are given below, each with its answer.
COC(=O)C1=C(C)NC(C)=C(C(=O)OC(C)C)[C@@H]1c1cccc2nonc12 [(R)-ISRADIPINE]: 0 (no)
Cc1scc2c1N(C(=O)CN1CCN(C)CC1)c1ccccc1NC2=O [TELENZEPINE]: 0 (no)
C[C@H]1c2cccc(O)c2C(=O)C2=C(O)[C@]3(O)C(=O)C(C(N)=O)=C(O)[C@@H](N(C)C)[C@@H]3[C@@H](O)[C@@H]21.O [DOXYCYCLINE]: 1 (yes)
CO[C@H]1C[C@@H]2CC[C@@H](C)[C@@](O)(O2)C(=O)C(=O)N2CCCC[C@H]2C(=O)O[C@H]([C@H](C)C[C@@H]2CC[C@@H](O)[C@H](OC)C2)CC(=O)[C@H](C)/C=C(\C)[C@@H](O)[C@@H](OC)C(=O)[C@H](C)C[C@H](C)/C=C/C=C/C=C/1C [SIROLIMUS]: 0 (no)
O=C1NS(=O)(=O)c2ccccc21 [SACCHARIN]: 1 (yes)
C=C1c2cccc(O)c2C(=O)C2=C(O)[C@]3(O)C(=O)C(C(N)=O)=C(O)[C@@H](N(C)C)[C@@H]3[C@@H](O)[C@H]12 [METHACYCLINE]: 0 (no)

Problem: Does bioavailability meet or surpass 80% for C[C@@H](CN1c2ccccc2Sc2ccccc21)N(C)C [(S)-PROMETHAZINE] ?
Result: 0 (no)

Problem: Does bioavailability meet or surpass 80% for CC(C)NC[C@@H](O)c1ccc(NS(C)(=O)=O)cc1 [DEXSOTALOL] ?
Result: 0 (no)

Problem: Does bioavailability meet or surpass 80% for CN(C)CCCN1c2ccccc2CCc2ccccc21 [IMIPRAMINE] ?
Result: 0 (no)

Problem: Does bioavailability meet or surpass 80% for CC(=O)Oc1ccccc1C(=O)O [ASPIRIN] ?
Result: 0 (no)

Problem: Does bioavailability meet or surpass 80% for N[C@@H](C(=O)N[C@@H]1C(=O)N2C(C(=O)O)=C(Cl)CS[C@H]12)c1ccccc1 [CEFACLOR ANHYDROUS] ?
Result: 1 (yes)

Problem: Does bioavailability meet or surpass 80% for COc1ccc(Cl)cc1C(=O)NCCc1ccc(S(=O)(=O)NC(=O)NC2CCCCC2)cc1 [GLYBURIDE] ?
Result: 1 (yes)

Problem: Does bioavailability meet or surpass 80% for N#Cc1ccc(C(c2ccc(C#N)cc2)n2cncn2)cc1 [LETROZOLE] ?
Result: 1 (yes)

---

Please go through the items and note down their bioavailability.
assay_notes: Oral bioavailability in human
condition_description: in vivo, F
Numbers only, in %.

The following molecules have reported results that may help.
C[C@H](CN1CCN(CCOCCO)CC1)CN1c2ccccc2Sc2ccccc21: 10
CC(C)COC[C@H](CN(Cc1ccccc1)c1ccccc1)N1CCCC1: 60
CCc1cccc2cc([C@H](O)CNC(C)(C)C)oc12 [(R)-BUFURALOL]: 46
C#C[C@]1(O)CC[C@H]2[C@@H]3CCC4=CC(=O)CC[C@@H]4[C@H]3CC[C@@]21CC [LEVONORGESTREL]: 87
Cc1cccc(Nc2ccncc2S(=O)(=O)NC(=O)NC(C)C)c1 [TORSEMIDE]: 91
COC(=O)C1=C(C)NC(C)=C(C(=O)OC(C)C)[C@H]1c1cccc2nonc12 [(S)-ISRADIPINE]: 19.5

Provide bioavailability values for the following items, in order.
1. CN1Cc2c(N)cccc2[C@@H](c2ccccc2)C1
2. CCOC(=O)C(C)(C)Oc1ccc(Cl)cc1 [CLOFIBRATE]
3. Cc1nccn1C[C@H]1CCc2c(c3ccccc3n2C)C1=O [(R)-ONDANSETRON]
4. C=C1/C(=C\C=C2/CCC[C@]3(C)[C@@H](C(C)CCCC(C)(C)O)CC[C@@H]23)C[C@@H](O)C[C@@H]1O (single isomer, unassigned) [CALCITRIOL]

Result:
[27, 95, 62, 61]

---

assay_notes: Oral bioavailability in human
condition_description: in vivo, F
Use MET when the recorded bioavailability is no lower than 80%; use NOT MET when it is lower.

Illustrative cases are given below, each with its answer.
C[C@@H](N/C(=N/c1ccncc1)NC#N)C(C)(C)C: NOT MET
CC(C)(C)NC[C@@H](O)COc1cccc2c1C[C@H](O)[C@H](O)C2 [R-NADOLOL]: NOT MET
CCCC(CCC)C(=O)O [VALPROIC ACID]: MET
CSc1ccc(C(=O)c2[nH]c(=O)[nH]c2C)cc1 [ENOXIMONE]: NOT MET
O=C1NC(=O)C(c2ccccc2)(c2ccccc2)N1 [PHENYTOIN]: MET
CN(C)[C@@H]1C(O)=C(C(N)=O)C(=O)[C@@]2(O)C(O)=C3C(=O)c4c(O)cccc4[C@@](C)(O)[C@H]3[C@H](O)[C@@H]12 [OXYTETRACYCLINE]: NOT MET
O=C(N[C@H](CO)[C@H](O)c1ccc([N+](=O)[O-])cc1)C(Cl)Cl [CHLORAMPHENICOL]: NOT MET
CN1Cc2c(N)cccc2[C@H](c2ccccc2)C1: NOT MET

Problem: Does bioavailability meet or surpass 80% for O=C1Cc2cc(CCN3CCN(c4nsc5ccccc45)CC3)c(Cl)cc2N1 [ZIPRASIDONE] ?
Result: NOT MET

Problem: Does bioavailability meet or surpass 80% for CCN1C[C@@H](CCN2CCOCC2)C(c2ccccc2)(c2ccccc2)C1=O [(S)-DOXAPRAM] ?
Result: NOT MET

Problem: Does bioavailability meet or surpass 80% for CC1(C)O[C@@H]2[C@@H](CO[C@@]3(COS(N)(=O)=O)OC(C)(C)O[C@@H]23)O1 [TOPIRAMATE] ?
Result: NOT MET

---

Please go through the items and note down their bioavailability.
assay_notes: Oral bioavailability in human
condition_description: in vivo
Answers are plain numbers, in %.

The following molecules have reported results that may help.
C[C@]12CC[C@H]3[C@@H](CCC4=CC(=O)CC[C@@]43C)[C@@H]1CC[C@@H]2O [TESTOSTERONE]: 7
CCN[C@H](C)Cc1cccc(C(F)(F)F)c1 [LEVOFENFLURAMINE]: 89
CCCCCc1cc(O)c2c(c1)OC(C)(C)[C@@H]1CCC(C)=C[C@@H]21 [DRONABINOL]: 15
O=C1CN=C(c2ccccc2Cl)c2cc([N+](=O)[O-])ccc2N1 [CLONAZEPAM]: 90
CNC(=O)Oc1ccc2c(c1)[C@]1(C)CCN(C)[C@@H]1N2C [PHYSOSTIGMINE]: 6

Provide bioavailability values for the following items, in order.
1. CCN(CC)C(=O)[C@]1(c2ccccc2)C[C@@H]1CN
2. CC[C@]1(c2ccccc2)C(=O)NC(=O)N(C)C1=O [(S)-METHYLPHENOBARBITAL]
3. COc1cccc([C@@]2(O)CCCC[C@@H]2CN(C)C)c1 [TRAMADOL]
4. CCN(C(C)=O)c1cccc(-c2ccnc3c(C#N)cnn23)c1 [ZALEPLON]

Result:
1. 84
2. 73
3. 75
4. 30

---

assay_notes: Oral bioavailability in human
condition_description: in vivo, F
Please go through the items and note down their bioavailability.
One number for each entry, in %.

The following molecules have reported results that may help.
C#C[C@]1(O)CC[C@H]2[C@@H]3CCC4=CC(=O)CC[C@@H]4[C@H]3CC[C@@]21C [NORETHINDRONE]: 64
CNCCCC1c2ccccc2C=Cc2ccccc21 [PROTRIPTYLINE]: 85
CN(C)S(=O)(=O)c1ccc2c(c1)N(CCCN1CCC(CCO)CC1)c1ccccc1S2 [PIPOTIAZINE]: 26
CN1C(C(=O)Nc2ccccn2)=C(O)c2ccccc2S1(=O)=O [PIROXICAM]: 100
CC1=CC[C@H](C(C)(C)O)C[C@H]1O: 72
C[C@@H](C(=O)O)c1ccc(-c2ccccc2)c(F)c1 [TARENFLURBIL]: 92

Provide bioavailability values for the following items, in order.
1. CS(=O)(=O)OCCCCOS(C)(=O)=O [BUSULFAN]
2. Cc1cn([C@H]2C[C@H](N=[N+]=[N-])[C@@H](CO)O2)c(=O)[nH]c1=O [ZIDOVUDINE]

Result:
1. 80
2. 64
